Ref: patent US12011444B2

# Test target: EP4 (Homo sapiens (Human), UniProt P35408)
# Sequence (P35408 whole entry): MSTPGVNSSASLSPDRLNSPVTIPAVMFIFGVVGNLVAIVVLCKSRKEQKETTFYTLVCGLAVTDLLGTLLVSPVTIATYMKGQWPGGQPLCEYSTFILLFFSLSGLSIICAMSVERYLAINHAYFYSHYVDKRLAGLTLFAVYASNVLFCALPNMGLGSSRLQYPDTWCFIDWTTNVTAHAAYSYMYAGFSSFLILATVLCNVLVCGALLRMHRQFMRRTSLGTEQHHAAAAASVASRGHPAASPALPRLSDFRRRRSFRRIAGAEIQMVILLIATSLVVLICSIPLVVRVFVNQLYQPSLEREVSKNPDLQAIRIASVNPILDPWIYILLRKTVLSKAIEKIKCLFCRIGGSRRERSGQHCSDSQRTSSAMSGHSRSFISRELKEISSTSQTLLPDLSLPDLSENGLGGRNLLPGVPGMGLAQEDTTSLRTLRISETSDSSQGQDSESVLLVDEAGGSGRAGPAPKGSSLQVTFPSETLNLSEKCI
# Assay protocol: hEP4 cAMP assay (BT549 breast cancer cells, HTRF cAMP)
# Type: cell-based
# Protocol conditions: antagonistic activity; mean values where measured multiple times
# Protocol: Plate is pre-incubated 45 minutes at room temperature. Subsequently, 2.5 microliters of PGE2 (final conc. 6 nM) are transferred into the assay plate. Plate is incubated 30 minutes at room temperature.
Would you kindly list log10(IC50) for each of these compounds?
Log10 applied to IC50; unit prior to transform: nM.

Example compounds with recorded log10(IC50):
CCNC(=O)Nc1ccc(-c2cc(NCCn3c(C)cc4c(OC)ccc(F)c43)ncn2)cc1OC | 1.45
COc1ccc(F)c2c1cc(C)n2CCNc1cc(-c2ccc3c(ccn3C)c2)ncn1 | 1.74
CCOc1cc(-c2cc(NCCn3c(C)cc4c(C)cc(F)cc43)ncn2)cc(Cl)c1C(=O)O | 2.07
Cc1ccc(F)c2c1cc(C)n2CCNc1cc(-c2ccc3c(c2)CN(CC(C)C)C3=O)ncn1 | 3.00
Cc1ccc(F)c2c1cc(C)n2CCNc1cc(-c2ccc3c(c2)OCCO3)ncn1 | 2.82
Cc1ccc(F)c2c1cc(C)n2CCNc1cc(-c2ccc(-c3ccccn3)cc2)ncn1 | 2.57
COc1ccc(Cl)c2c1cc(C)n2CCNc1cc(-c2ccc(C(=O)O)c(CC(C)C)c2)ncn1 | 2.24
Cc1nc(CCC(=O)O)oc1-c1ccc(-c2cc(NCCn3c(C)cc4c(C)ccc(F)c43)ncn2)cc1 | 2.95

Hello, I would appreciate it if you could give log10(IC50) for each entry below.
1. CCCc1cc(-c2cc(NCCn3c(C)cc4c(OC)ccc(F)c43)ncn2)cc(F)c1C(=O)O
2. COc1cccc2c1cc(C)n2CCNc1cc(-c2ccc(C(=O)O)c(OCC(C)C)c2)ncn1
3. Cc1cc(F)cc2c1cc(C)n2CCNc1cc(-c2ccc3ccncc3c2)ncn1
4. Cc1cc2ccccc2n1CCNc1cc(-c2ccc3c(=O)[nH][nH]c3c2)ncn1
5. COc1ccc(F)c2c1cc(C)n2CCNc1cc(-c2ccc(C(=O)O)c3c2ccn3C)ncn1
6. Cc1ccc(F)c2c1cc(C)n2CCNc1cc(-c2ccc(C(=O)O)c(OC(F)F)c2)ncn1
7. CCOc1cc(-c2cc(NCCn3c(C)cc4c(C(F)(F)F)ccc(F)c43)ncn2)ccc1C(=O)O

[1.84, 2.39, 2.44, 2.50, 2.87, 2.09, 2.40]

Could you share which log10(IC50) value was measured for COc1ccc(F)c2c1cc(C)n2CCNc1cc(-c2ccc(Cn3cccn3)c(F)c2)ncn1 ?
2.68

----------
Would you kindly list pIC50 for each of these molecules?
# Test target: PTRGER4 (EP4) (Homo sapiens (Human), UniProt P35408)
# Sequence (P35408 whole entry, looked up): as the sequence (P35408 whole entry) above
# Assay protocol: hEP4 b-arrestin assay (PathHunter HEK 293 PTGER4 b-arrestin cells)
# Assay type: cell-based
# Protocol conditions: antagonistic activity on hEP4; mean where measured multiple times
Numbers only, as −log10 of the molar value.

Example molecules with recorded pIC50:
CCCc1cc(-c2cc(NCCn3c(C)cc4c(C)ccc(F)c43)ncn2)ccc1C(=O)O | 6.96
Cc1cc2c(Cl)ccc(F)c2n1CCNc1cc(-c2ccc(C(=O)O)cc2)ncn1 | 6.01
Cc1c(F)cc2c(cc(C)n2CCNc2cc(-c3ccc(C(=O)O)c(CC(C)C)c3)ncn2)c1F | 6.22
Cc1cc(F)cc2c1cc(C)n2CCNc1cc(-c2ccc(-c3c[nH]cn3)cc2)ncn1 | 7.03
CCNc1cc(-c2cc(NCCn3c(C)cc4c(C)ccc(F)c43)ncn2)cc(F)c1C(=O)O | 7.01

Hello, I would appreciate it if you could give pIC50 for each entry below.
1. COc1cc(-c2cc(NCCn3c(C)cc4c(C)ccc(F)c43)ncn2)ccc1C(=O)O
2. COc1cc(-c2cc(NCCn3c(C)cc4c(OC)ccc(F)c43)ncn2)ccc1CO
3. CCN1Cc2cc(-c3cc(NCCn4c(C)cc5c(C)ccc(F)c54)ncn3)ccc2C1=O

1. 6.21
2. 7.11
3. 6.13

----------
# Test target: EP4 (Homo sapiens (Human), UniProt P35408)
# Assay protocol: hEP4 cAMP assay (BT549 breast cancer cells, HTRF cAMP)
# Type: cell-based
# Protocol conditions: antagonistic activity; mean values where measured multiple times
# Description: Plate is pre-incubated 45 minutes at room temperature. Subsequently, 2.5 microliters of PGE2 (final conc. 6 nM) are transferred into the assay plate. Plate is incubated 30 minutes at room temperature.
pIC50: −log10 of the molar value.
Decide using pIC50: a value greater than or equal to 7 is y, a smaller one is n.

Below, 5 molecules whose answers are already recorded.
CCCc1cc(-c2cc(NCCn3c(C)cc4c(OC)ccc(F)c43)ncn2)cc(OC)c1C(=O)O | n
COc1cc(F)cc2c1cc(C)n2CCNc1cc(-c2ccc3[nH]c(C(F)(F)F)nc3c2)ncn1 | n
CCOc1cc(-c2cc(NCCn3c(C)cc4c(OC)cccc43)ncn2)ccc1CNC1CC1 | n
Cc1cc(F)cc2c1cc(C)n2CCNc1cc(-c2ccc(C(=O)O)c(OC(F)F)c2)ncn1 | n
Cc1nc(-c2ccc(-c3cc(NCCn4c(C)cc5c(C)cc(F)cc54)ncn3)cc2)co1 | n

Would you say CCc1cc(-c2cc(NCCn3c(C)cc4c(OC)ccc(Cl)c43)ncn2)cc(F)c1C(=O)O shows pIC50 at minimum 7?
n

Would you say COc1cc(F)cc2c1cc(C#N)n2CCNc1cc(-c2ccc(C(=O)O)c(CC(C)C)c2)ncn1 shows pIC50 at minimum 7?
y

Would you say Cc1nc(NCCn2c(C)cc3c(C)cc(F)cc32)cc(-c2cc(C(F)(F)F)c(C(=O)O)s2)n1 shows pIC50 at minimum 7?
y

Would you say COc1ccc(F)c2c1cc(C)n2CCNc1cc(-c2ccc(-c3n[nH]cc3C(=O)O)cc2)ncn1 shows pIC50 at minimum 7?
n

Would you say Cc1cc2c(F)c(F)cc(F)c2n1CCNc1cc(-c2ccc(-c3noc(=O)[nH]3)cc2)ncn1 shows pIC50 at minimum 7?
n

Would you say Cc1nc(CCC(=O)O)oc1-c1ccc(-c2cc(NCCn3c(C)cc4c(C)cc(F)cc43)ncn2)cc1 shows pIC50 at minimum 7?
n

Would you say CCOc1cc(-c2cc(NCCn3c(C)cc4c(C)ccc(F)c43)ncn2)ccc1CNCCOC shows pIC50 at minimum 7?
n

Would you say COc1cc(F)c(F)c2c1cc(C)n2CCNc1cc(-c2ccc(C(=O)O)c(CC(C)C)c2)ncn1 shows pIC50 at minimum 7?
y

Would you say COc1ccc(F)c2c1cc(C)n2CCNc1cc(-c2cc(Cl)c(C(=O)O)c(OCC(C)C)c2)ncn1 shows pIC50 at minimum 7?
y

Would you say COc1cc(F)c(F)c2c1cc(C)n2CCNc1cc(-c2ccc(C(=O)O)c(OC(F)(F)F)c2)ncn1 shows pIC50 at minimum 7?
n

Would you say COc1cc(F)cc2c1cc(C)n2CCNc1cc(-c2ccc(-c3cc(F)ccn3)cc2)ncn1 shows pIC50 at minimum 7?
n

Would you say COc1cc(F)c(F)c2c1cc(C)n2CCNc1cc(-c2ccc(-c3oncc3C)cc2)ncn1 shows pIC50 at minimum 7?
n

Would you say CCCc1cc(-c2cc(NCCn3c(C)cc4c(OC)ccc(Cl)c43)ncn2)ccc1C(=O)O shows pIC50 at minimum 7?
n

Would you say Cc1cc2c(F)c(F)cc(Cl)c2n1CCNc1cc(-c2ccc(C(=O)O)c(SC(C)C)c2)ncn1 shows pIC50 at minimum 7?
n

Would you say CCOc1cc(-c2cc(NCCn3c(C)cc4c(OC)ccc(F)c43)nc(C)n2)ccc1C(=O)O shows pIC50 at minimum 7?
n

Would you say CCCOc1cc(-c2cc(NCCn3c(C)cc4c(F)cc(F)c(F)c43)ncn2)cc(Cl)c1C(=O)O shows pIC50 at minimum 7?
n

Would you say CCCc1cc(-c2cc(NCCn3c(C)cc4cc(C)cc(F)c43)ncn2)cc(Cl)c1C(=O)O shows pIC50 at minimum 7?
n

----------
Would you kindly list pIC50 for each of these compounds?
# Test target: PTRGER4 (EP4) (Homo sapiens (Human))
# Assay protocol: hEP4 b-arrestin assay (PathHunter HEK 293 PTGER4 b-arrestin cells)
# Assay type: cell-based
# Protocol conditions: antagonistic activity on hEP4; mean where measured multiple times
One number for each entry, as −log10 of the molar value.

COc1cc(F)cc2c1cc(C)n2CCNc1cc(-c2ccc3cc[nH]c3c2)ncn1 | 6.64
Cc1cc(F)cc2c1cc(C)n2CCNc1cc(-c2ccc3c(C(=O)O)n[nH]c3c2)ncn1 | 6.20
COc1ccc(F)c2c1cc(C)n2CCNc1cc(-c2ccc3[nH]c(=O)[nH]c3c2)ncn1 [compound 74] | 6.04

Hello, I would appreciate it if you could give pIC50 for each entry below.
1. CCOc1cc(-c2cc(NCCn3c(C)cc4c(F)c(F)cc(F)c43)ncn2)sc1C(=O)O
2. COc1ccc(F)c2c1cc(C)n2CCNc1cc(-c2ccc(-c3c[nH]cn3)cc2)ncn1
3. CCCc1cc(-c2cc(NCCn3c(C)cc4c(CC)ccc(F)c43)ncn2)ccc1C(=O)O
4. CCc1cc(-c2cc(NCCn3c(C)cc4c(OC)ccc(F)c43)ncn2)sc1C(=O)O
5. COc1ccc(F)c2c1cc(C)n2CCNc1cc(-c2ccc3nccnc3c2)ncn1

1. 7.60
2. 7.42
3. 6.45
4. 7.89
5. 6.74

Hello, I would appreciate it if you could give pIC50 for each entry below.
1. COc1cccc2c1cc(C)n2CCNc1cc(-c2ccc3c(c2)CN(C)C3=O)ncn1
2. Cc1ccc(F)c2c1cc(C)n2CCNc1cc(-c2ccc(C(=O)O)c(N)c2)ncn1
3. COc1ccc(F)c2c1cc(C)n2CCNc1cc(-c2ccc(-c3noc(=O)[nH]3)cc2)ncn1
4. CCOc1cc(-c2cc(NCCn3c(C)cc4c(OC)ccc(F)c43)ncn2)cc(C)c1C(=O)O
5. Cc1cc(-c2cc(NCCn3c(C)cc4c(C)ccc(F)c43)ncn2)cc(F)c1C(=O)O
6. CCNc1cc(-c2cc(NCCn3c(C)cc4cccc(C#N)c43)ncn2)ccc1C(=O)O

1: 6.05; 2: 7.04; 3: 6.96; 4: 6.58; 5: 6.28; 6: 6.07

Hello, I would appreciate it if you could give pIC50 for each entry below.
1. Cc1ccc2c(c1)cc(C)n2CCNc1cc(-c2ccc(C(=O)O)c(CC(C)C)c2)ncn1
2. Cc1cc2c(Cl)cccc2n1CCNc1cc(-c2ccc(C(=O)O)c(CC(C)C)c2)ncn1

[6.03, 6.20]
